System: K4 kissing-loop RNA reporter;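 further: bound reporter read as fluorescence of individual clusters on recovered sequencing chips by microscopy, with normalized cluster intensities fitted with a binding model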
Experiment: apparent KD of K4 kissing-loop reporter; higher = weaker reporter binding
Conditions: Eterna round: R107; input ligand: arginine 13.2 mM
outcome.measure: apparent KD of K4 kissing-loop reporter (nM)
Report the figure in nM without appending any unit label.

# seq.string, reading
data = [
    ("UCGAGUUGACGAAGAGUCAACUCGUGUGAUACCAGUGACGAAAGUCACCCUUGGCAGCACUAUGCUAGUGAUGUUGGUAUUUAAG [#08 K4 Theophylline A Same State]", 92.7),
    ("AAUAUAUAGUGAAGGAGCGCGUAUUGCAGUGAUGUUGCUAAGUUAUUAUUAUCUAUUUUUACGCAGGUAGGUCGCACUAUAUAUA [JR_SSArginiB_Sub014]", 231),
    ("UUAAUUCCGGUGGUGUGUAGAACACAGUUACGAGGACCGGUACGGCCGCCACUCGGAUGCACUUUCAGUGAUGUUGAAAGCAUCA [Same State Tryptophan A GF 1]", 514),
    ("AGAGUUAUGCGAGGAUAUGCGGUUAGUACUCAAAGAGUACUAACGCAGAGUGAUGUUCUGUGAAACACAGAAGGCGCAUAACUCA [Omei KL FMN B SS B v1]", 160),
]

With those in mind, consider the next sequence.
What value of apparent KD of K4 kissing-loop reporter has been reported for the following sequence? UGACUGGACUGAAGGAGCGUUGAAGGAGCGUAGGCAGUGAUGUUGCCUACAGGUAGGUCGCAGCAGGUAGGUCGCAGUCUAGUCU [ArgBS 27 #DoubleAptamer #SwitchBubble]
92.1

---

Test system: MS2 coat protein
Assay: apparent KD of MS2 coat protein; designed switch direction (-1 OFF switch, 1 ON switch): -1; higher = weaker reporter binding
Conditions: input ligand: none
outcome.measure: apparent KD of MS2 coat protein (nM)
Report the figure in nM without appending any unit label.

# seq.string, unit.name, apparent KD of MS2 coat protein
measured = [
    ("CUUUACAAGCUAAGAUCCUACAUGAGGAUCACCCAUGUGGUCCGGUGACGUGAGUCACCGGACUUAGCUCGUCUUGA [salish99_S_TOV1_R5_093] (Eterna round: R97, puzzle: Sensor, turn-off variant 1)", "nM", 39.1),
]

What value of apparent KD of MS2 coat protein has been reported for the following sequence? UUGUGCACGCUGCGGUCCUACAUGAGGAUCACCCAUGUGGUCUGGUGGCGUGGGUCACCGGACUUGGCUCGUCUUGU [salish99_S_TOV1_R5_060] (Eterna round: R97, puzzle: Sensor, turn-off variant 1)
42.3

Input AAUAACAAGCAGAUCCUAAACAUGAGGAUCACCCAUGUGCUCGUCUUGUUGUACUAUCACUCGAAAGUGAUAGUACA (Eterna round: R97, puzzle: Sensor, turn-off variant 1)
104

Input GCUCGCGGGCAAGGAUAUCCUACGCUGUUCUGGUUCGUGUCUGUUACAUGAGGAUCACCCAUGUGGGAGAAGGUGCACCAGGGU [Design 49] (Eterna round: R96, puzzle: Exclusion NG 2)
20.1

Input GUCGAACAUGAGGAUCACCCAUGUGAGGAUAUGCGAAUUUCAUCAAAAGAUGAAAUUUGCAGAAGGCACACGAC [Omei Ex1 A15] (Eterna round: R97, puzzle: Exclusion 1)
23.4

Input ACUUAUUGAGGAUAUACAGAUUAUUACAUGAGGAUCACCCAUGUUCUUCAAUGUAUAUAUGUAGAAGGCAGAGGAA [JL-ex5-4.24 Malcolm mod] (Eterna round: R97, puzzle: Exclusion 5)
39.7

# credit: the supplement of paper PMC9170038
